system: Protein A, native biotinylated (Sigma P2165) (Staphylococcus aureus, UniProt P38507 37-477)
run description: SPR; steady state; Protein A immobilized ~600 RU
experimental conditions: tags: biotin, label: 5'-fluorescein, predicted stem-loop
experimental readout: Kd

binder	endpoint result
PA#2/8[S1-58] 5'-fluorescein (structured_DNA) DNA: ATACCAGCTTATTCAATTAGCAACATGAGGGGGATAGAGGGGGTGGGTTCTCTCGGCT	1920 nM
